B1: PTPN9 (parent)
chain: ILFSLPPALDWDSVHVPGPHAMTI

variants of: B1; assay: protein stability index of a GFP-peptide fusion (GPS, HEK-293T) (PSI 1-6); higher = more stable; conditions: c terminus: a fixed tail appended;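 also: lentivirally expressed fusions sorted by FACS into six bins by GFP to DsRed ratio, PSI derived from sequencing read proportions per bin multiplied by bin number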
So I've got a bunch of variants here, and I need their protein stability index values.
Enter the number alone.

Task: Which value of protein stability index has been reported for `P19K` in the records?
Output: 2.02

Task: Which value of protein stability index has been reported for `P17T` in the records?
Output: 2.02

Task: Which value of protein stability index has been reported for `I1A` in the records?
Output: 2.03

Task: Which value of protein stability index has been reported for `D10V` in the records?
Output: 2.05

The measured values listed here are drawn from the supplement of paper PMC10567573.
